Reference source: ChEMBL document CHEMBL1149172

- tgt: Human immunodeficiency virus type 1 protease (Human immunodeficiency virus 1, UniProt Q72874)
// Ki lookup, one value per entry
Hi! Could you send only the number? It should be in nM, unit omitted.

Reported Ki for `CC(C)CN(C[C@@H](O)[C@H](Cc1ccccc1)NC(=O)[C@H](CC(N)=O)NC(=O)c1ccc2ccccc2n1)S(=O)(=O)N1ONc2ccccc21` was 0.1

The record that follows has no Ki shown yet.
Reported Ki for `CC(C)CN(C[C@@H](O)[C@H](Cc1ccccc1)NC(=O)O[C@H]1CCOC1)S(=O)(=O)NC(C)(C)C` was 42
